IC50 values for the compounds below.
molecular target: CCDC6-RET (Homo sapiens, UniProt P07949); construct: CCDC6 (fusion partner, N-terminal part); the other entry of the earlier key: CCDC6 (Q16204, Coiled-coil domain-containing protein 6); test: Inhibitory activity against RET gene fusion CCDC6-RET; details: read-out: median inhibitory activity (IC50) against CCDC6-RET
Sequence (P07949 with tags, fused parts or gaps): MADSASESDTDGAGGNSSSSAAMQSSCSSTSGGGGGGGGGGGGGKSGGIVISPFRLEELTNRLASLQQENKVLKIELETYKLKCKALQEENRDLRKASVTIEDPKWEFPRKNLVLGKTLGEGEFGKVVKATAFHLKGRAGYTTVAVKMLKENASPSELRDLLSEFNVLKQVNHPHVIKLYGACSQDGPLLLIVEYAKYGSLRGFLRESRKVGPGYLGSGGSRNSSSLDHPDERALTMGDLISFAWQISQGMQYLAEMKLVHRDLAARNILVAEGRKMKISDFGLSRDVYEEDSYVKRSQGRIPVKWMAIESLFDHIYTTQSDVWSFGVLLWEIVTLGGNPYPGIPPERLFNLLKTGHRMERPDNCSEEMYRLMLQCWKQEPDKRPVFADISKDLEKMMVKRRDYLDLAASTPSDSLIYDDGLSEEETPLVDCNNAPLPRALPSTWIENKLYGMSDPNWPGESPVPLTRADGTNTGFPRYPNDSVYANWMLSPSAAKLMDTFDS
OBSERVABLE: IC50

CCNc1cc(-c2ccc(N3CC4CC(C3)N4Cc3ccc(-n4cc(F)cn4)nc3)nc2)c2c(C#N)cnn2c1 ... < 5 nM
CCNc1cc(-c2cnc(N3CC4CC(C3)N4Cc3ccc(OC)nc3)cn2)c2c(C#N)cnn2c1 ... < 5 nM
